Quick reference: Enzyme Activity Endpoint Assay (purified): scIgG of the listed items.
biological target: pooled human IgG (human IgG1, 2, 3 and 4)
Report only the number, with the unit ng/µL understood.

Exercise: Quick one: Enzyme Activity Endpoint Assay (purified): scIgG for PRT-412 (protein) MVTSVWTKGVTPPADFTQGEDVFHAPYVANQGWYDITKTFNGKDDLLCGAATAGNMLHWWFDQNKEYIEAYLKKHPEKQKIMFGDQELLDVRKAINTKGSQKNSELFNYFRDKAFPNLSARRLGVMPDLVLDMFINGYYLNVTKTQTTDVNRTYQEKDKRGGIFDAVFTRGDQSKLLTSRHDFKEKGLKEISDLIKQELTEGKALGLSHTYANVRINHVINLWGADFDSDGNLKAIYVTDSDSNASIGMKKYFVGVNAAGKVAISAKEIKEDNIGAQVLGLFTLSTGQDIWNQTN ?
Key: 170

Exercise: What measured Enzyme Activity Endpoint Assay (purified): scIgG goes with PRT-657 (protein) MQITSVWTKGVTPLTPEQFRYNNEDVIHAPYLAHQGWYDITKAFDGKDNLLCGAATAGNMLHWWFDQNKTEIEAYLSKHPEKQKIIFNNQELFDLREAINTKDSQTDSKLFNYFRDKAFPNLSARQLGVMPDLVLDMFINGYYLNVFKTQSTDVNRPYQDKDKRGGIFDAVFTRGDQTTLLTARHDLKNKGLNDISTIIKQELTEGRALALSHTYANVSISHVINLWGADFNAEGNLEAIYVTDSDANASIGMKKYFVGINAHGHVAISAKKIEGENIGAQVLGLFTLSSGKDIWQKLSLEHHHHHH ?
Key: 0

Exercise: Look at this protein and give its reported Enzyme Activity Endpoint Assay (purified): scIgG. PRT-564 (protein) MANQEIRYSEATPSHITSVWTKGVTPPTQFIQNEDVLHAPYIANQGWYDITKTFNGKDDLLCGAATAGNMLHWWFDQNKTQIENYLKKHPEKQKINFNGEQMFDVKEAIDTKDSQTDSALFSYFKDKAFPYLSTKHLGVFPDHVIDMFINGYRLSLTNHGPTPVKRQTKDPRGGIFDAVFTRGDQSKLLTSRHDFKEKTLNEISQLIKQELTEGKALGLSHTYANVRINHVINLWGADFNAEGNLEAIYVTDSDSNASIGMKKYYVGVNAAGKVAISAKEIEGDNIGAQVLGLFTLSTGQDIWQQTNLEHHHHHH
Key: 0

Exercise: # Enzyme Activity Endpoint Assay (purified): scIgG lookup, item PRT-423 (protein) MTITSVWTKGVTPPTPEDFRYNNEDVLHAPYVANQGWYDITKTFDGKDNLLCGAATAGNMLHWWFDQNKEEIERYLKKHPEKQKIIFNNQELFDVKAAIDTKDSQTNSKLFNYFRDKAFPNLSARQLGVMPDLVLDMFINGYYLNLGKTQSTDVNRPYQDKDKRGGIFDAVFTRGDQTTLLTARHDLKNKGLNEISDLIKQELTEGKALALSHTYANVRINHVINLWGADFDAEGNLIAIYVTDSDANASIGMKKYFVGRNANGKVAISAKKIEGDNIGAQVLGLFTLSTGQDIWQKLS
Key: 0
